assay: Protein binding in rat plasma by LC-MS analysis based ultracentrifugation assay; format: ADME, cell-free; conditions: read-out: PPB (converted)
quantity measured: fraction unbound
Lab note: jot down the number only; don't add units.

Cc1cc(Nc2ccc(S(F)(F)(F)(F)F)cc2)n2nc(C(C)(F)F)nc2n1 ... 0.03

Quote fraction unbound reported for "Cc1c(Cc2ccc(C(F)(F)F)nc2)c[nH]c1C(=O)NC1CC1" please.
0.118

----------
biological target: Cytochrome P450 2C9 (Homo sapiens)
Sequence (P11712 whole entry): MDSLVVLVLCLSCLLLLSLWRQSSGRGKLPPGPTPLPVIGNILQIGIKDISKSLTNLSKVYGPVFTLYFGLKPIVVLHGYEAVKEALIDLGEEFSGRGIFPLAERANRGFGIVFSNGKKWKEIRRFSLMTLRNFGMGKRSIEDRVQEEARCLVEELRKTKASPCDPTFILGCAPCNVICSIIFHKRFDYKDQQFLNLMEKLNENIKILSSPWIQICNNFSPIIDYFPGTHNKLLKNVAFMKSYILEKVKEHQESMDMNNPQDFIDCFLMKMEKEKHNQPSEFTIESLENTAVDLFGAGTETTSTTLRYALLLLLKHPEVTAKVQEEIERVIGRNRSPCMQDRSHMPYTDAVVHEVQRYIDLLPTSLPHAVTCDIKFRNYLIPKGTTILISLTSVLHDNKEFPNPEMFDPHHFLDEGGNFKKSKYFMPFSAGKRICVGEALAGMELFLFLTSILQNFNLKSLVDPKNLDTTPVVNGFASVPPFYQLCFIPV
quantity measured: IC50

Quote IC50 reported for "Cc1c(Cc2ccc(C(F)(F)F)nc2)c[nH]c1C(=O)NC1CC1" please.
> 20 µM

----------
assay: AUC (0 to 23 hrs) in NOD-SCID IL2Rgamma null mouse blood infected with Plasmodium falciparum 3D70087/N9 at 10 mg/kg, po qd for 4 days starting from 3 days post infection and measured after 24 hrs post dose by LC-MS/MS analysis; type: ADME, organism-based; design: dose 10 mg/kg, time < 23 hr, route oral
quantity measured: AUC at 23 h (µM·h)
Quick reminder: number only, in µM·h, skip the unit.

Quote AUC at 23 h reported for "Cc1c(Cc2ccc(C(F)(F)F)nc2)c[nH]c1C(=O)NC1CC1" please.
2.1

----------
system: Plasmodium falciparum; assay type: functional, organism-based; details: R2B, 72 h
quantity measured: EC50

Quote EC50 reported for Cc1cc(Nc2ccc(S(F)(F)(F)(F)F)cc2)n2nc(C(C)(F)F)nc2n1 [DSM-265] please.
74 to 150 nM

----------
Molecular target: UniProt:P05177
Sequence (P05177 whole entry): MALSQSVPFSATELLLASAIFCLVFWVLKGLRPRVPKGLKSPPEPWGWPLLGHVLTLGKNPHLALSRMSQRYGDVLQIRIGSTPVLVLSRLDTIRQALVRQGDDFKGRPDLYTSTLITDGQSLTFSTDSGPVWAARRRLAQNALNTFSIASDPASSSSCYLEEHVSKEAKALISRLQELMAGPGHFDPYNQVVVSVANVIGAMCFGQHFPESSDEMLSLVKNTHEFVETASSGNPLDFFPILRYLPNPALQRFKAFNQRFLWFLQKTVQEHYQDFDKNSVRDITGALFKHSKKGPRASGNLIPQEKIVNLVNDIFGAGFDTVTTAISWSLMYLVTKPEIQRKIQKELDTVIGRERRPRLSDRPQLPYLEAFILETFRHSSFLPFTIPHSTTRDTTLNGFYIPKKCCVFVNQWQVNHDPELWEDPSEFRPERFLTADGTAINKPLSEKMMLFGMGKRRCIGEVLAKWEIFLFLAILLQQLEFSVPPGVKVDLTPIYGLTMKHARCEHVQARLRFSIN
pIC50: −log10 of the molar value.
quantity measured: pIC50

Quote pIC50 reported for "Cc1c(Cc2ccc(C(F)(F)F)nc2)c[nH]c1C(=O)NC1CC1" please.
< 4.70

----------
test: Intrinsic clearance in mouse liver microsomes assessed as per mg protein; type: ADME, Microsome; settings: liver microsomes, read-out: CLH
quantity measured: microsomal CLint

Quote microsomal CLint reported for "Cc1cc(Nc2ccc(S(F)(F)(F)(F)F)cc2)n2nc(C(C)(F)F)nc2n1" please.
7 to 8 µL/min/mg

----------
experiment: Intrinsic clearance in mouse liver microsomes assessed as per mg protein; type: ADME, Microsome; details: microsomes
For each record, check the reported microsomal CLint: if it is below 40 µL/min/mg write TRUE, else write FALSE.

O=C(NC1CC1)c1cc(Cc2ccc(C(F)(F)F)nc2)c[nH]1 ... FALSE
Cc1[nH]c(C(=O)NC2CC2)c(C)c1Oc1ccc(C(F)(F)F)nc1 ... TRUE
CCOC(=O)c1[nH]c(C)c(Cc2ccc(C(F)(F)F)nc2)c1C ... FALSE
Cc1[nH]c(C(=O)N2CCCC2)cc1Cc1ccc(C(F)(F)F)nc1 ... FALSE
Cc1[nH]c(C(=O)NC2CC2)c(C)c1C(=O)c1ccc(C(F)(F)F)cn1 ... TRUE

Then this compound:
Is 40 µL/min/mg strictly greater than the compound's reported microsomal CLint? compound: "CCNC(=O)c1[nH]c(C)c(Cc2ccc(C(F)(F)F)nc2)c1C"
FALSE
